TEST SYSTEM: DGKα (Homo sapiens (Human), UniProt P23743)
Sequence (P23743 whole entry, looked up): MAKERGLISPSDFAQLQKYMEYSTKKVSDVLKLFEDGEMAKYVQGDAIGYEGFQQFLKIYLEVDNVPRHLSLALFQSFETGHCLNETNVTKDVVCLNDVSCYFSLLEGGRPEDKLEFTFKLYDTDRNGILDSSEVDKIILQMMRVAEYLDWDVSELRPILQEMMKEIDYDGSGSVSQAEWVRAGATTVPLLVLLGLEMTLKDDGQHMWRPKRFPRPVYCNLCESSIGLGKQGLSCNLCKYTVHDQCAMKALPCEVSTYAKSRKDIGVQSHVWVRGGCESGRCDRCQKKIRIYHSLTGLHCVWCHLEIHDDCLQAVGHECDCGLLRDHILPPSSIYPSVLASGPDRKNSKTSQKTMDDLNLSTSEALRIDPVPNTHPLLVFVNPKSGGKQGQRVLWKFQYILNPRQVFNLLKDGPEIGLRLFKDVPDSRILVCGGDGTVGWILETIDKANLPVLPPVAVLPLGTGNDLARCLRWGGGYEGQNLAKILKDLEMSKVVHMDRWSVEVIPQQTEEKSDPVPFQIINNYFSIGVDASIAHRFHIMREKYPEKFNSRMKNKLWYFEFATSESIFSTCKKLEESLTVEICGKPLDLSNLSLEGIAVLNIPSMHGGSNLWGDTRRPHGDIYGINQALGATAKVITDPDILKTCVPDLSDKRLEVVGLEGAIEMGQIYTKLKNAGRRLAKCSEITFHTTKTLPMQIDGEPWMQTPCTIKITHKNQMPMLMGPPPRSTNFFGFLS
TEST: biochemical
Format: biochemical
CONDITION DETAILS: liposome (LIPGLO) assay; read-out: DGKα LIPGLO IC50
REPORTED ENDPOINT: IC50 (nM)
Only the number, expressed in nM, is required.

Here are 5 compounds together with their reported answers.
COMPOUND	REPORTED ENDPOINT	UNIT LABEL	REPORTED RESULT
CC(C)c1ccc(OC2CCN(c3c(C#N)c(=O)n(C)c4ccc(Cl)nc34)CC2)cc1	IC50	nM	490
Cn1c(=O)c(C#N)c(N2CCC(Oc3ccc(OC(F)(F)F)cc3)CC2)c2nc(C#N)ccc21	IC50	nM	1600
C[C@@H]1CN(c2cc(=O)n(C)c3ccc(C#N)nc23)CC[C@H]1Oc1ccc(C2CCCC2)cc1 [Example 100]	IC50	nM	110
Cn1c(=O)cc(N2CCC(Oc3nccc4cccnc34)CC2)c2nc(C#N)ccc21	IC50	nM	2800
COc1cccc(OC2CCN(c3c(C#N)c(=O)n(C)c4ccc(Cl)nc34)CC2)c1	IC50	nM	150

Could you share which IC50 value was measured for CCCCc1ccc(OC2CCN(c3cc(=O)n(C)c4ccc(C#N)nc34)CC2)cc1 ?
840

Could you share which IC50 value was measured for Cc1ccc(O[C@@H]2CCN(c3cc(=O)n(C)c4ccc(C#N)nc34)C[C@H]2C)cc1 (single isomer, unassigned) [Example 121] ?
1800

Could you share which IC50 value was measured for Cc1nccc(OC2CCN(c3cc(=O)n(C)c4ccc(C#N)nc34)CC2)n1 ?
4200

Could you share which IC50 value was measured for CC(C)c1ccc(O[C@@H]2CCN(c3cc(=O)n(C)c4ccc(C#N)nc34)C[C@H]2C)cc1 (single isomer, unassigned) [Example 95] ?
400

Could you share which IC50 value was measured for C[C@@H]1CN(c2cc(=O)n(C)c3ccc(C#N)nc23)CC[C@H]1Oc1ccc(OC(C)(C)C)cc1 [Example 87] ?
50

Could you share which IC50 value was measured for Cn1c(=O)c(C#N)c(N2CCC(Oc3ccc(OC(F)(F)F)cc3)CC2)c2nc(Br)ccc21 ?
450

Could you share which IC50 value was measured for CC[C@@H]1CN(c2cc(=O)n(C)c3ccc(C#N)nc23)CC[C@H]1Oc1cccc(C(C)C)c1 (single isomer, unassigned) [Example 138] ?
24

Could you share which IC50 value was measured for Cn1c(=O)c(C#N)c(N2CCC(Oc3ccccc3OC(F)(F)F)CC2)c2nc(Cl)ccc21 ?
2800

Could you share which IC50 value was measured for Cn1c(=O)c(C#N)c(N2CCC(Oc3ccc(OC(C)(C)C)cc3)CC2)c2nc(Cl)ccc21 ?
280

Could you share which IC50 value was measured for Cn1c(=O)cc(N2CCC(Oc3ccc(OC(F)(F)F)cc3)CC2)c2nc(C#N)ccc21 ?
800

Could you share which IC50 value was measured for C[C@@H]1CN(c2cc(=O)n(C)c3ccc(C#N)nc23)CC[C@@H]1Oc1cccc(C2CC2)c1 [Example 180] ?
45

Could you share which IC50 value was measured for CCC(C)(C)c1ccc(O[C@@H]2CCN(c3cc(=O)n(C)c4ccc(C#N)nc34)C[C@H]2C)cc1 (single isomer, unassigned) [Example 84] ?
48

Could you share which IC50 value was measured for Cn1c(=O)cc(N2CCC(Oc3ncnc4ccccc34)CC2)c2nc(C#N)ccc21 ?
2300

Could you share which IC50 value was measured for Cn1c(=O)cc(N2CCC(Oc3ccc4c(c3)CCCC4)CC2)c2nc(C#N)ccc21 ?
730

Could you share which IC50 value was measured for C[C@@H]1CN(c2cc(=O)n(C)c3ccc(C#N)nc23)CC[C@H]1Oc1ccc(F)cc1C(F)(F)F (single isomer, unassigned) [Example 117] ?
2000

Could you share which IC50 value was measured for Cc1ccc(O[C@@H]2CCN(c3cc(=O)n(C)c4ccc(C#N)nc34)C[C@H]2C)cc1 [Example 119] ?
240

Could you share which IC50 value was measured for Cn1c(=O)cc(N2CCC(Oc3ccc(OC(C)(C)C)cc3)CC2)c2nc(C#N)ccc21 ?
560
